B1: NELF-E aptamer (parent)
chain: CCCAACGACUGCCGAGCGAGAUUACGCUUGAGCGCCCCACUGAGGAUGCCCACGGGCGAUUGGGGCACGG

Variants of: B1
test.description: HiTS-RAP
condition: with NELF-E (Drosophila)
pKd: −log10 of the molar value.
T means recorded pKd is 8 or above; F means it is below 8.

Worked cases, answers included:
In [3]: df
Out[3]:
                              item_sequence  assigned_category
0  CCCAACGACGGCCGAGCGAGAUUACGCUUGAUCGCCCCACUGAGGAUGCCCACGGGCGAUUGGGGCACGG [U10G G32U]                  T
1  CCCAACGACUGCCGAGCGUGAUUACGCUUGAGCGCCCCACGGAGGAUGCCCACGGGCGAUUGGGGCACGG [A19U U41G]                  T
2  CCCAAGGACUGCCGAGCGAGAUUACACUUGAGCGCCCCACUGAGGAUGCCCACGGGCGAUUGGGGCACGG [C6G G26A]                  T
3  CCCAACGACUGGCGAGCGAGAUCACGCUUGAGCGCCCCACUGAGGAUGCCCACGGGCGAUUGGGGCACGG [C12G U23C]                  T
4  CCCAAUGACUGCCGAGCGAGAUUACGCUAGAGCGCCCCACUGAGGAUGCCCACGGGCGAUUGGGGCACGG [C6U U29A]                  T

Prompt: Is pKd for CCCAUGGACUGCCGAGCGAGAUUACGCUUGAGCGCCCCACUGAGGAUGCCCACGGGCGAUUGGGGCACGG [A5U C6G] at or above 8?
Completion: T

Prompt: Is pKd for CCCAACGAGUGCCGAGCGAGAUUACGCUGGAGCGCCCCACUGAGGAUGCCCACGGGCGAUUGGGGCACGG [C9G U29G] at or above 8?
Completion: T

Prompt: Is pKd for CCCAACGACUGCGGAGCGAGAUUACGCUUGUGCGCCCCACUGAGGAUGCCCACGGGCGAUUGGGGCACGG [C13G A31U] at or above 8?
Completion: T

Prompt: Is pKd for CCCGACGACUGCCGAGCGAGAUUACGCUUGAGCGCCCCACUGAGGAUGUCCACGGGCGAUUGGGGCACGG [A4G C49U] at or above 8?
Completion: F
